Origin of the recorded values: the supplement of paper PMC5998384

Test system: HeLa Kyoto
protocolDescription: solubility in G1/S (NP-40 vs SDS abundance) (log2 ratio); higher = more soluble
assayContext: cell cycle stage: G1/S
recordedMetric: solubility in G1/S (log2)
In your answer, state the number alone without any accompanying words.

Query string: solubility in G1/S (log2) for MNIMDFNVKKLAADAGTFLSRAVQFTEEKLGQAEKTELDAHLENLLSKAECTKIWTEKIMKQTEVLLQPNPNARIEEFVYEKLDRKAPSRINNPELLGQYMIDAGTEFGPGTAYGNALIKCGETQKRIGTADRELIQTSALNFLTPLRNFIEGDYKTIAKERKLLQNKRLDLDAAKTRLKKAKAAETRNSSEQELRITQSEFDRQAEITRLLLEGISSTHAHHLRCLNDFVEAQMTYYAQCYQYMLDLQKQLGSFPSNYLSNNNQTSVTPVPSVLPNAIGSSAMASTSGLVITSPSNLSDLKECSGSRKARVLYDYDAANSTELSLLADEVITVFSVVGMDSDWLMGERGNQKGKVPITYLELLN [SH3GLB1] ?
Result string: 0.531

Query string: What measured solubility in G1/S (log2) goes with MRRLNRKKTLSLVKELDAFPKVPESYVETSASGGTVSLIAFTTMALLTIMEFSVYQDTWMKYEYEVDKDFSSKLRINIDITVAMKCQYVGADVLDLAETMVASADGLVYEPTVFDLSPQQKEWQRMLQLIQSRLQEEHSLQDVIFKSAFKSTSTALPPREDDSSQSPNACRIHGHLYVNKVAGNFHITVGKAIPHPRGHAHLAALVNHESYNFSHRIDHLSFGELVPAIINPLDGTEKIAIDHNQMFQYFITVVPTKLHTYKISADTHQFSVTERERIINHAAGSHGVSGIFMKYDLSSLMVTVTEEHMPFWQFFVRLCGIVGGIFSTTGMLHGIGKFIVEIICCRFRLGSYKPVNSVPFEDGHTDNHLPLLENNTH [ERGIC2] ?
Result string: -0.0386

Query string: Looking for the measured solubility in G1/S (log2) of MVHCSCVLFRKYGNFIDKLRLFTRGGSGGMGYPRLGGEGGKGGDVWVVAQNRMTLKQLKDRYPRKRFVAGVGANSKISALKGSKGKDCEIPVPVGISVTDENGKIIGELNKENDRILVAQGGLGGKLLTNFLPLKGQKRIIHLDLKLIADVGLVGFPNAGKSSLLSCVSHAKPAIADYAFTTLKPELGKIMYSDFKQISVADLPGLIEGAHMNKGMGHKFLKHIERTRQLLFVVDISGFQLSSHTQYRTAFETIILLTKELELYKEELQTKPALLAVNKMDLPDAQDKFHELMSQLQNPKDFLHLFEKNMIPERTVEFQHIIPISAVTGEGIEELKNCIRKSLDEQANQENDALHKKQLLNLWISDTMSSTEPPSKHAVTTSKMDII [GTPBP10] , can you help?
Result string: 0.217

Query string: Quick one: solubility in G1/S (log2) for MAAVVALSLRRRLPATTLGGACLQASRGAQTAAATAPRIKKFAIYRWDPDKAGDKPHMQTYEVDLNKCGPMVLDALIKIKNEVDSTLTFRRSCREGICGSCAMNINGGNTLACTRRIDTNLNKVSKIYPLPHMYVIKDLVPDLSNFYAQYKSIEPYLKKKDESQEGKQQYLQSIEEREKLDGLYECILCACCSTSCPSYWWNGDKYLGPAVLMQAYRWMIDSRDDFTEERLAKLQDPFSLYRCHTIMNCTRTCPKGLNPGKAIAEIKKMMATYKEKKASV [SDHB] ?
Result string: 0.659

* * *

Tested on: HeLa Kyoto
protocolDescription: solubility change mitosis vs G1/S (difference of NP-40 vs SDS log2 ratios) (log2 ratio difference); higher = more soluble in mitosis
recordedMetric: solubility change mitosis (log2)
Simply state the number, no unit and no words.

Query string: Need solubility change mitosis (log2) of MALHSMRKARERWSFIRALHKGSAAAPALQKDSKKRVFSGIQPTGILHLGNYLGAIESWVRLQDEYDSVLYSIVDLHSITVPQDPAVLRQSILDMTAVLLACGINPEKSILFQQSQVSEHTQLSWILSCMVRLPRLQHLHQWKAKTTKQKHDGTVGLLTYPVLQAADILLYKSTHVPVGEDQVQHMELVQDLAQGFNKKYGEFFPVPESILTSMKKVKSLRDPSAKMSKSDPDKLATVRITDSPEEIVQKFRKAVTDFTSEVTYDPAGRAGVSNIVAVHAAVTGLSVEEVVRRSAGMNTARYKLAVADAVIEKFAPIKREIEKLKLDKDHLEKVLQIGSAKAKELAYTVCQEVKKLVGFL [WARS2] , thanks.
Result string: -0.0372

Query string: Quick one: solubility change mitosis (log2) of MAAAAARWNHVWVGTETGILKGVNLQRKQAANFTAGGQPRREEAVSALCWGTGGETQMLVGCADRTVKHFSTEDGIFQGQRHCPGGEGMFRGLAQADGTLITCVDSGILRVWHDKDKDTSSDPLLELRVGPGVCRMRQDPAHPHVVATGGKENALKIWDLQGSEEPVFRAKNVRNDWLDLRVPIWDQDIQFLPGSQKLVTCTGYHQVRVYDPASPQRRPVLETTYGEYPLTAMTLTPGGNSVIVGNTHGQLAEIDLRQGRLLGCLKGLAGSVRGLQCHPSKPLLASCGLDRVLRIHRIQNPRGLEHKVYLKSQLNCLLLSGRDNWEDEPQEPQEPNKVPLEDTETDELWASLEAAAKRKLSGLEQPQGALQTRRRKKKRPGSTSP [WDR74] ?
Result string: 0.631

Query string: Requested read-out: solubility change mitosis (log2). Entry: MGPLPRTVELFYDVLSPYSWLGFEILCRYQNIWNINLQLRPSLITGIMKDSGNKPPGLLPRKGLYMANDLKLLRHHLQIPIHFPKDFLSVMLEKGSLSAMRFLTAVNLEHPEMLEKASRELWMRVWSRNEDITEPQSILAAAEKAGMSAEQAQGLLEKIATPKVKNQLKETTEAACRYGAFGLPITVAHVDGQTHMLFGSDRMELLAHLLGEKWMGPIPPAVNARL [GSTK1]
Result string: -0.098

* * *

Tested on: HeLa Kyoto
protocolDescription: thermal stability score vs G1/S (z-score of summed log2 fold changes over temperatures); higher = more thermally stable than in G1/S
assayContext: cell cycle stage: early G1 (4.5 h after nocodazole release)
Classification field: criterion met = thermal stability score at or over 1; criterion not met = thermal stability score under 1.

Query string: Textbook exercise: given the entry MRALRAGLTLASGAGLGAVVEGWRRRREDARAAPGLLGRLPVLPVAAAAELPPVPGGPRGPGELAKYGLPGLAQLKSRESYVLCYDPRTRGALWVVEQLRPERLRGDGDRRECDFREDDSVHAYHRATNADYRGSGFDRGHLAAAANHRWSQKAMDDTFYLSNVAPQVPHLNQNAWNNLEKYSRSLTRSYQNVYVCTGPLFLPRTEADGKSYVKYQVIGKNHVAVPTHFFKVLILEAAGGQIELRTYVMPNAPVDEAIPLERFLVPIESIERASGLLFVPNILARAGSLKAITAGSK [ENDOG] , state whether its thermal stability score is greater than or equal to 1.
Result string: criterion met

Query string: Determine whether measured thermal stability score meets or exceeds 1 for MFCEKAMELIRELHRAPEGQLPAFNEDGLRQVLEEMKALYEQNQSDVNEAKSGGRSDLIPTIKFRHCSLLRNRRCTVAYLYDRLLRIRALRWEYGSVLPNALRFHMAAEEMEWFNNYKRSLATYMRSLGGDEGLDITQDMKPPKSLYIEVRCLKDYGEFEVDDGTSVLLKKNSQHFLPRWKCEQLIRQGVLEHILS [GINS1]
Result string: criterion not met

Query string: // inclusive: thermal stability score at least 1? input: MDAPRQVVNFGPGPAKLPHSVLLEIQKELLDYKGVGISVLEMSHRSSDFAKIINNTENLVRELLAVPDNYKVIFLQGGGCGQFSAVPLNLIGLKAGRCADYVVTGAWSAKAAEEAKKFGTINIVHPKLGSYTKIPDPSTWNLNPDASYVYYCANETVHGVEFDFIPDVKGAVLVCDMSSNFLSKPVDVSKFGVIFAGAQKNVGSAGVTVVIVRDDLLGFALRECPSVLEYKVQAGNSSLYNTPPCFSIYVMGLVLEWIKNNGGAAAMEKLSSIKSQTIYEIIDNSQGFYVCPVEPQNRSKMNIPFRIGNAKGDDALEKRFLDKALELNMLSLKGHRSVGGIRASLYNAVTIEDVQKLAAFMKKFLEMHQL [PSAT1]
Result string: criterion not met

Query string: Does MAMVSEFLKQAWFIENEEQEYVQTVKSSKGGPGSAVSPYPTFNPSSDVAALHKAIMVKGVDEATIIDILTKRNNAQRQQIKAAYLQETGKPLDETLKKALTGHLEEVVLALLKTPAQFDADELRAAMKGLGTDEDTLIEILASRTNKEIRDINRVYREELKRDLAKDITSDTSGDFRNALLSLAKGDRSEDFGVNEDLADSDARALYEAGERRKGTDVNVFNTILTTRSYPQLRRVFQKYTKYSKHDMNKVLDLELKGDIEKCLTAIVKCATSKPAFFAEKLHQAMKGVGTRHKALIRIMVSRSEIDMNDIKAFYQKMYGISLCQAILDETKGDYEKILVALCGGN [ANXA1] have a reported thermal stability score of at least 1?
Result string: criterion met

Query string: Reported thermal stability score reaches at least 1 for MAETEALSKLREDFRMQNKSVFILGASGETGRVLLKEILEQGLFSKVTLIGRRKLTFDEEAYKNVNQEVVDFEKLDDYASAFQGHDVGFCCLGTTRGKAGAEGFVRVDRDYVLKSAELAKAGGCKHFNLLSSKGADKSSNFLYLQVKGEVEAKVEELKFDRYSVFRPGVLLCDRQESRPGEWLVRKFFGSLPDSWASGHSVPVVTVVRAMLNNVVRPRDKQMELLENKAIHDLGKAHGSLKP [HTATIP2] ?
Result string: criterion met

Query string: Does the reported thermal stability score for MAAAPLKVCIVGSGNWGSAVAKIIGNNVKKLQKFASTVKMWVFEETVNGRKLTDIINNDHENVKYLPGHKLPENVVAMSNLSEAVQDADLLVFVIPHQFIHRICDEITGRVPKKALGITLIKGIDEGPEGLKLISDIIREKMGIDISVLMGANIANEVAAEKFCETTIGSKVMENGLLFKELLQTPNFRITVVDDADTVELCGALKNIVAVGAGFCDGLRCGDNTKAAVIRLGLMEMIAFARIFCKGQVSTATFLESCGVADLITTCYGGRNRRVAEAFARTGKTIEELEKEMLNGQKLQGPQTSAEVYRILKQKGLLDKFPLFTAVYQICYESRPVQEMLSCLQSHPEHT [GPD1L] fall at or above the 1 mark?
Result string: criterion not met

Query string: Form field: thermal stability score at least 1? Entry: MSFNLQSSKKLFIFLGKSLFSLLEAMIFALLPKPRKNVAGEIVLITGAGSGLGRLLALQFARLGSVLVLWDINKEGNEETCKMAREAGATRVHAYTCDCSQKEGVYRVADQVKKEVGDVSILINNAGIVTGKKFLDCPDELMEKSFDVNFKAHLWTYKAFLPAMIANDHGHLVCISSSAGLSGVNGLADYCASKFAAFGFAESVFVETFVQKQKGIKTTIVCPFFIKTGMFEGCTTGCPSLLPILEPKYAVEKIVEAILQEKMYLYMPKLLYFMMFLKSFLPLKTGLLIADYLGILHAMDGFVDQKKKL [SDR16C5]
Result string: criterion not met

Query string: Tell me whether thermal stability score is at least 1 here: MKFRAKIVDGACLNHFTRISNMIAKLAKTCTLRISPDKLNFILCDKLANGGVSMWCELEQENFFNEFQMEGVSAENNEIYLELTSENLSRALKTAQNARALKIKLTNKHFPCLTVSVELLSMSSSSRIVTHDIPIKVIPRKLWKDLQEPVVPDPDVSIYLPVLKTMKSVVEKMKNISNHLVIEANLDGELNLKIETELVCVTTHFKDLGNPPLASESTHEDRNVEHMAEVHIDIRKLLQFLAGQQVNPTKALCNIVNNKMVHFDLLHEDVSLQYFIPALS [HUS1]
Result string: criterion met

Query string: Can MAKISSPTETERCIESLIAVFQKYAGKDGYNYTLSKTEFLSFMNTELAAFTKNQKDPGVLDRMMKKLDTNSDGQLDFSEFLNLIGGLAMACHDSFLKAVPSQKRT [S100A11] be said to have thermal stability score at or above 1?
Result string: criterion not met

Query string: Say whether MDEDGLPLMGSGIDLTKVPAIQQKRTVAFLNQFVVHTVQFLNRFSTVCEEKLADLSLRIQQIETTLNILDAKLSSIPGLDDVTVEVSPLNVTSVTNGAHPEATSEQPQQNSTQDSGLQESEVSAENILTVAKDPRYARYLKMVQVGVPVMAIRNKMISEGLDPDLLERPDAPVPDGESEKTVEESSDSESSFSD [CCDC53] shows thermal stability score of 1 or more.
Result string: criterion not met
